# Experimental target: SSAO/VAP-1 (Mus musculus)
# Construct: the genital fat was excised and frozen; The tissue was homogenized; from tissue; host or cells: genital fat of BALB/C mice
# Sequence (O70423 1-765): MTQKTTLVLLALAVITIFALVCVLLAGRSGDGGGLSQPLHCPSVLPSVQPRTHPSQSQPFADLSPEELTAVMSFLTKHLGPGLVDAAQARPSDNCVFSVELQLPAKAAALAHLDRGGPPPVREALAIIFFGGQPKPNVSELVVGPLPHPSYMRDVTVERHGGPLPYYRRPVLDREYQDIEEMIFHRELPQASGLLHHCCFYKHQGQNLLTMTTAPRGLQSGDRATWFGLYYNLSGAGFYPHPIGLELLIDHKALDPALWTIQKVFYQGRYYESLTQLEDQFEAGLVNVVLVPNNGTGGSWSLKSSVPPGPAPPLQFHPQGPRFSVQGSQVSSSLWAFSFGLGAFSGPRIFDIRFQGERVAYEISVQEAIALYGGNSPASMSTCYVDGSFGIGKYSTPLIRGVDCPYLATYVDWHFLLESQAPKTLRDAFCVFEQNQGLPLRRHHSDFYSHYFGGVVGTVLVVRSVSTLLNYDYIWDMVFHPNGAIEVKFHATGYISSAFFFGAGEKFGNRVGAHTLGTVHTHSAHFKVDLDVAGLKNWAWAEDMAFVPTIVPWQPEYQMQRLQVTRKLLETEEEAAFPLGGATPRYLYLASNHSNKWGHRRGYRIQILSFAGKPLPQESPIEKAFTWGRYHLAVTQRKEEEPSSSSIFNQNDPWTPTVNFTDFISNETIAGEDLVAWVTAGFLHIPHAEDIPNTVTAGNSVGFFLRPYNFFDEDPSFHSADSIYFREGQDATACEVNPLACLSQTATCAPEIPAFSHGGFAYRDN
# Assay name: In vivo inhibition of SSAO/VAP-1 activity in mouse genital fat
# Parameters: species or system BALB/C mice
# Condition parameters: ip, female BALB/C mice, intraperitoneal, genital fat SSAO activity two hours after administration, read-out: Female Mice ED50 [ip]
Assay metric: ED50

C[C@H](NS(=O)(=O)c1ccc(OC/C(F)=C\CN)cc1)c1ccccc1.Cl
< 50 mg/kg
CC(C)S(=O)(=O)c1ccc(OC/C(F)=C\CN)cc1.Cl
< 150 mg/kg
CS(=O)(=O)c1ccc(OC/C(F)=C\CN)cc1.Cl
< 300 mg/kg
Cl.NC/C=C(/F)COc1ccc(S(=O)(=O)Cc2ccccc2)cc1
< 300 mg/kg
Cc1nc2cc(OC/C(F)=C\CN)ccc2s1.Cl
< 100 mg/kg

Provide reported ED50 for each item, in the same order as listed.
1. NC/C(=C/F)CCc1ccc(F)cc1 [Mofegiline, reference compound]
2. Cl.NC/C=C(/F)COc1ccc(C(=O)NC2CCCC2)cc1

a:
< 1 mg/kg
< 50 mg/kg
